Reference source for all entries: patent US20190315854A1

Each record here notes measured Kd.
# SYSTEM UNDER TEST: T1, sIL-6R (soluble IL-6 receptor; SBH Sciences) (human, UniProt P08887 20-365)
# T1 construct: also called human IL-6R
# T1 sequence: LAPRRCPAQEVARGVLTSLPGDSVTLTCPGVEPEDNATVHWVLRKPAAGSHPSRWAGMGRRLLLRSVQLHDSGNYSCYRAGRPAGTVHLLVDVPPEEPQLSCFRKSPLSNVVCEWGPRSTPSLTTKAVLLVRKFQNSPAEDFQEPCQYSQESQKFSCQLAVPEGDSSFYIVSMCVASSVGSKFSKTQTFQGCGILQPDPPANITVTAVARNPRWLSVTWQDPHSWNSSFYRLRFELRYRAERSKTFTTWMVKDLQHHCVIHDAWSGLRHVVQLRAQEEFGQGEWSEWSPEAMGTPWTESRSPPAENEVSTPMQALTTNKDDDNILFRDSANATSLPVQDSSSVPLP
# PROCEDURE DETAILS: SPR (BIAcore 3000), antibody on chip, sIL-6R analyte, 25 C
Report only the number, with the unit pM understood.

232# (antibody, human IgG1, kappa, V domains shown) VH: QVQLQESGPGLVRPSQTLSLTCTVSGYSITSDHAWSWVRQPPGRGLEWIGYISYSGMITYNPSLKSRVTMLRDTSKNQFSLRLSSVTAADTAVYYCARTLARMTAMDYWGQGSLVTVSS VL: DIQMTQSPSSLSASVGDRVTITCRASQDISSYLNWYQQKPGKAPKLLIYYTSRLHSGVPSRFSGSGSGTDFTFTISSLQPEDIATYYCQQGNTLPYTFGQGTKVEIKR: 319
246# (antibody, human IgG1, kappa, V domains shown) VH: QVQLQESGPGLVRPSQTLSLTCTVSGYSITSDHAWSWVRQPPGRGLEWIGYISYSGMITYNPSLKSRVTMLRDTSKNQFSLRLSSVTAADTAVYYCARTLARTTAIDFWGQGSLVTVSS VL: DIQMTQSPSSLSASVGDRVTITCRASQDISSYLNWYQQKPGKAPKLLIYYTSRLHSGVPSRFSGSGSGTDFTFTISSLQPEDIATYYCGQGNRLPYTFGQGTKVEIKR: 78.9
219# (antibody, human IgG1, kappa, V domains shown) VH: QVQLQESGPGLVRPSQTLSLTCTVSGYSITSDHAWSWVRQPPGRGLEWIGYISYSGITTYNPSLKSRVTMLRDTSKNQFSLRLSSVTAADTAVYYCARCLARMTAIDFWGQGSLVTVSS VL: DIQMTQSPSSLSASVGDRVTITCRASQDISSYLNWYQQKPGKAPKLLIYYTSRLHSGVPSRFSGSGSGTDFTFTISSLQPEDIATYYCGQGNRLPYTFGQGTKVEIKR: 491
236# (antibody, human IgG1, kappa, V domains shown) VH: QVQLQESGPGLVRPSQTLSLTCTVSGYSITSDHAWSWVRQPPGRGLEWIGYISYSGMTTYNPSLKSRVTMLRDTSKNQFSLRLSSVTAADTAVYYCARCLARATAMDYWGQGSLVTVSS VL: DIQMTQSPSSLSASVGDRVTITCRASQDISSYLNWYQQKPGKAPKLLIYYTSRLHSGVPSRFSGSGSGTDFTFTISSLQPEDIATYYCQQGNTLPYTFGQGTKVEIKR: 82.9

Next binder, please.
Recorded Kd for 52# (antibody, human IgG1, kappa, V domains shown, also called Sample # 52) VH: QVQLQESGPGLVRPSQTLSLTCTVSGYSITSDHAWSWVRQPPGRGLEWIGYISYSGITTYNPSLKSRVTMLRDTSKNQFSLRLSSVTAADTAVYYCARSLARTTAIDFWGQGSLVTVSS VL: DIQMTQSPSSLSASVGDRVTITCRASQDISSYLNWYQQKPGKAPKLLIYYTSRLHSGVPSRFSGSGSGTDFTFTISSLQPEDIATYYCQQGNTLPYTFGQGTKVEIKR , please?
1860
